Exercise: for every item that follows, state its recorded binding signal.
- Measured Target: OsWOX13 (Oryza sativa, UniProt Q5QMM3 1-267)
- Sequence: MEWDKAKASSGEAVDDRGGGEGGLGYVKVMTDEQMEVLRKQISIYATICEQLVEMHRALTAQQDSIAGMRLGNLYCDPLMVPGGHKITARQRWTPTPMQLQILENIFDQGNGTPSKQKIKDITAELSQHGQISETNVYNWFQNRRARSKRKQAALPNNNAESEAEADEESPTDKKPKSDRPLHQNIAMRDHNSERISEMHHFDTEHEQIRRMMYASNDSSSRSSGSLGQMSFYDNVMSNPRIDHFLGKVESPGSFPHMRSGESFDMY
- Run Description: protein-binding microarray (RPBM); PBS, 2% BSA, 51.3 ng/ul salmon testes DNA, 50 uM zinc acetate, 200 nM TF, 25 C, 1 h; high values mean tight binding
- Protocol Conditions: protein: recombinant; tags: N-terminal polyhistidine and DsRed monomer fusion (pET32a); label: CyDye5-dUTP incorporated in the synthesized complementary strand; 3' TTTTT single-stranded linker to array surface; dsDNA, one strand shown
Whole data set: some 35,000 sequences, median “fluorescence intensity (a.u.)” near 10,000, cut for the highest 2% near 52,000. The list comes from a sample in which the highest values are over-represented; it also holds close analogues and randomly drawn sequences.

What is its binding signal for OsWOX13 (Oryza sativa, UniProt Q5QMM3 1-267)? Entry: AAACAGACAAACTACACTAATTGTGATGACTCTGGATTTTCGGAGTCACCTAGTGCAG
8340 fluorescence intensity (a.u.)

How about CGTTTTGTTAAATTAAAATAAATTAACAAGCCCAATTGCACGGAGTCACCTAGTGCAG ?
22300 fluorescence intensity (a.u.)

How about GCCTTAACTTTGTGATCATATCTTCATCTTCATTAGGCCTCGGAGTCACCTAGTGCAG ?
4300 fluorescence intensity (a.u.)

How about CTATAATTTCTGGTTACGGTGGTGACAAGTCATGTGGGCTCGGAGTCACCTAGTGCAG ?
13900 fluorescence intensity (a.u.)

How about CGTGATTAGAATCCATCTCCGACCGACCGCACATACAAAGCGGAGTCACCTAGTGCAG ?
43300 fluorescence intensity (a.u.)
